Here, each record is paired with measured half-life at 1 µM data.
test-method-notes: Half life in human liver microsomes at 1 uM by HPLC-MS/MS analysis
Format: ADME, microsome
observed-property: half-life at 1 µM (min)

smiles-record	measurement-units	rel	measured-number
Cc1ccc(Nc2nc(-c3cc(C(=O)O)no3)cs2)cc1	min	=	14.3
Cc1ccc(Nc2nc(-c3cc(C(=O)Nc4ccccc4)no3)cs2)cc1	min	=	35.1
CCOC(=O)c1cc(-c2csc(Nc3ccc(C)cc3)n2)on1	min	<	1
Cc1ccc(Nc2nc(-c3cc(C(=O)Nc4ccccn4)no3)cs2)cc1	min	=	16.1
CCOC(=O)c1cc(-c2csc(Nc3cc(Cl)cc(Cl)c3)n2)on1	min	=	3.3
